STUDY TARGET: Ba/F3 EGFR-Del19/T790M/C797S (Homo sapiens, UniProt P00533, T790M/C797S, cells depend on it, form not given)
Sequence (P00533 with tags, fused parts or gaps DEL746-750/T790M/C797S, form open): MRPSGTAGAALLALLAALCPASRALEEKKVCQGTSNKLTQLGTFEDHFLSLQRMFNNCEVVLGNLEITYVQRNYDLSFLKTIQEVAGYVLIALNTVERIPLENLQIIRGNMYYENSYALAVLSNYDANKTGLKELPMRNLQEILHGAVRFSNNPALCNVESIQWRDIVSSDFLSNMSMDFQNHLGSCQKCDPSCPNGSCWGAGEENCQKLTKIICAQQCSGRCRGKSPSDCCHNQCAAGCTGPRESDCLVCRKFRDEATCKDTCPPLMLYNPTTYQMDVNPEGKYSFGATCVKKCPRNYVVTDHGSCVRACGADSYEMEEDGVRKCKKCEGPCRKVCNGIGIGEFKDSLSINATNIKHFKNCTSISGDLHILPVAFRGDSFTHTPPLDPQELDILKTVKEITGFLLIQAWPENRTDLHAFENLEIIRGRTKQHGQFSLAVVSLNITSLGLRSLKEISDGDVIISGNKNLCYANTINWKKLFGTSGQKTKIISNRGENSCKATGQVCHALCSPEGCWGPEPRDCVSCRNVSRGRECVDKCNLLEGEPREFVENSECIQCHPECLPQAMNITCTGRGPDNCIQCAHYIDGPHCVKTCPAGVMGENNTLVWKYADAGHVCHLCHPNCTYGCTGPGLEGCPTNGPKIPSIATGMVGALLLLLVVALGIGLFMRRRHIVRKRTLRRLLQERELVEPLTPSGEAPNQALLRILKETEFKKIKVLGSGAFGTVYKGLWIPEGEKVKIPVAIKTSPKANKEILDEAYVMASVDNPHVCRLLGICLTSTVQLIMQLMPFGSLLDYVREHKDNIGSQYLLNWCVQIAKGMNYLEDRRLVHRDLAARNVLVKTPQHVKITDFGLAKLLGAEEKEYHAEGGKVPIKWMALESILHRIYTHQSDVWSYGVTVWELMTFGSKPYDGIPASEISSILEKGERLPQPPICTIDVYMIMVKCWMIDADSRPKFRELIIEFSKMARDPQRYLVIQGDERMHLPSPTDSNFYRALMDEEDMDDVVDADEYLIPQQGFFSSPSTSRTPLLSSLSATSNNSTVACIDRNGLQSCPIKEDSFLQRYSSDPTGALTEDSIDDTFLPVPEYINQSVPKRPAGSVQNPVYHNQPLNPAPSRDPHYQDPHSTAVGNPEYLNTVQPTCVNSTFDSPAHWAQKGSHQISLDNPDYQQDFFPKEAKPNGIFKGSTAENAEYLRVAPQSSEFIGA
PROTOCOL DETAILS: Ba/F3 viability assay (CellTiter-Glo), EGFR-Del19/T790M/C797S (DTC)
Format: cell-based
EXPERIMENTAL SETUP: Ba/F3 EGFR-Del19/T790M/C797S anti-proliferation; read-out: BAF3 DTC IC50
OBSERVABLE: GI50

Known GI50 results, listed for orientation:
Cc1c(-c2cnc3cc2O[C@@H](C)CCOc2c(cnn2C)-c2nccc(n2)N3)cnn1C1CCN(CCCF)CC1 [(84)] = < 50 nM
CCOc1nn(C2CCN(C)CC2F)cc1-c1cnc2cc1O[C@@H](C)CCOc1c(cnn1C)-c1nccc(n1)N2 (stereo partly shown) [(16)] = < 50 nM
CCOc1nn(C2CC(C)(C)OC(C)(C)C2)cc1-c1cnc2cc1O[C@@H](C)CCOc1c(cnn1C)-c1nccc(n1)N2 [(33)] = < 50 nM
C[C@H]1CCOc2c(cnn2C)-c2nccc(n2)Nc2cc(c(-c3ccc(CN4CCN(C)CC4)n3C)cn2)O1 [(103)] = 100 to 1000 nM
C[C@H]1CCOc2c(cnn2C)-c2nccc(n2)Nc2cc(c(-c3cnc(N4CCN(C)CC4)c(OCC(F)(F)F)c3)cn2)O1 [(128)] = < 50 nM
CCOc1nn(CC(F)F)cc1-c1cnc2cc1O[C@@H](C)CCOc1c(cnn1C)-c1nccc(n1)N2 [(29)] = < 50 nM

Now look at this one.
Challenge: // returns reported GI50 for input C[C@H]1CCOc2c(cnn2C)-c2nccc(n2)Nc2cc(c(-c3cccc(NCCN(C)C)c3)cn2)O1 [(148)]
Response given: < 50 nM

---

# GI50 per entry
STUDY TARGET: Ba/F3 EGFR-Del19/C797S (Homo sapiens, UniProt P00533, C797S, cells depend on it, form not given)
Sequence (P00533 with tags, fused parts or gaps DEL746-750/C797S, form open): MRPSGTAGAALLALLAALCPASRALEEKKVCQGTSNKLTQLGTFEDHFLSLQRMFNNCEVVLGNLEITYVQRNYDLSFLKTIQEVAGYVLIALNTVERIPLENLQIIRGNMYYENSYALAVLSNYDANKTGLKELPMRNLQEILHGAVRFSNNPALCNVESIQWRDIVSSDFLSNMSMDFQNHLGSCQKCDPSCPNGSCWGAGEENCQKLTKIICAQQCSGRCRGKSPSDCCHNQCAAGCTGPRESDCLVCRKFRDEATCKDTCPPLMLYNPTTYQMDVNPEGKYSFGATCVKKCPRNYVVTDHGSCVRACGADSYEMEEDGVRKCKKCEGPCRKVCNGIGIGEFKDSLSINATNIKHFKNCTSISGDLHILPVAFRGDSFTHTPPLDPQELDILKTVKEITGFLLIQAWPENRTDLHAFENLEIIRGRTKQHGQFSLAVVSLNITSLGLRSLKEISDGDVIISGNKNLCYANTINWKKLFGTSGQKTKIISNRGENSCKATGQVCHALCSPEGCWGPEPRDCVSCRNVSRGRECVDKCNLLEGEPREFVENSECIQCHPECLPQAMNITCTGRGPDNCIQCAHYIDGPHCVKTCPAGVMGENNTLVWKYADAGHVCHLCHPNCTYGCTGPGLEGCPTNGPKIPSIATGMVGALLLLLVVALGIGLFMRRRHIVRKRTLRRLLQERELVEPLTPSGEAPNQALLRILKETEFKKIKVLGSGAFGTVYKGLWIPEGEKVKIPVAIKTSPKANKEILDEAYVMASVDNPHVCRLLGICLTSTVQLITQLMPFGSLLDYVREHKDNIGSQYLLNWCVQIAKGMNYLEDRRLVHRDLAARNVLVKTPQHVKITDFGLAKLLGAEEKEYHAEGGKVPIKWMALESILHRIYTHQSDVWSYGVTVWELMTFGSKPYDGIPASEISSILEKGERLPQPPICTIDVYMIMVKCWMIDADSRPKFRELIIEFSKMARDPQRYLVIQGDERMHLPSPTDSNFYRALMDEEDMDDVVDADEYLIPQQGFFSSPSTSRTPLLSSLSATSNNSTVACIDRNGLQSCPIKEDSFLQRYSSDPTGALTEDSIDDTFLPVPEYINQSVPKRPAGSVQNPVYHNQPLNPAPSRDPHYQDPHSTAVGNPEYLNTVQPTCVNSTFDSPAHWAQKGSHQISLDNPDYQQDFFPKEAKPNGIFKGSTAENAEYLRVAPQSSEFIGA
PROTOCOL DETAILS: Ba/F3 viability assay (CellTiter-Glo), EGFR-Del19/C797S (DC)
Format: cell-based
EXPERIMENTAL SETUP: Ba/F3 EGFR-Del19/C797S anti-proliferation; read-out: BAF3 DC IC50

Known GI50 results, listed for orientation:
C[C@H]1CCOc2c(cnn2C)-c2nccc(n2)Nc2cc(c(-c3ccc(CN4CCN(C)CC4)n3C)cn2)O1 = 100 to 1000 nM
C[C@H]1CCOc2c(cnn2C)-c2nccc(n2)Nc2cc(c(-c3ccc(CN4CCN(C)CC4)c(OCC(F)(F)F)c3)cn2)O1 = < 50 nM
C[C@H]1CCOc2c(cnn2C)-c2nccc(n2)Nc2cc(c(-c3ccnn3CCN3CCOCC3)cn2)O1 = ≥ 1000 nM
C[C@H]1CCOc2c(cnn2C)-c2nccc(n2)Nc2cc(c(-c3cn(C4CC4)nc3OCC(F)(F)F)cn2)O1 = < 50 nM
C[C@H]1CCOc2c(cnn2C)-c2nccc(n2)Nc2cc(c(-c3ccc(CN4CCOCC4)cc3)cn2)O1 = < 50 nM

Challenge: // returns reported GI50 for input C[C@H]1CCOc2c(cnn2C)-c2nccc(n2)Nc2cc(c(-c3ccc(N(C)CCN(C)C)nc3)cn2)O1
Response given: 50 to 100 nM

Challenge: Can you check CCOc1cc(-c2cnc3cc2O[C@@H](C)CCOc2c(cnn2C)-c2nccc(n2)N3)ccc1CN1CCN(C)CC1 next?
Response given: < 50 nM

Challenge: Can you check C[C@H]1CCOc2c(cnn2C)-c2nccc(n2)Nc2cc(c(Cl)cn2)O1 next?
Response given: 100 to 1000 nM

Challenge: Can you check CCOC(=O)CN1CCC(n2cc(-c3cnc4cc3O[C@@H](C)CCOc3c(cnn3C)-c3nccc(n3)N4)c(OCC)n2)CC1 next?
Response given: < 50 nM

Challenge: Can you check C[C@H]1CCOc2c(cnn2C)-c2nccc(n2)Nc2cc(c(-c3cnn(CCCN(C)C)c3)cn2)O1 next?
Response given: < 50 nM

Challenge: Can you check C[C@H]1CCOc2c(cnn2C)-c2nccc(n2)Nc2cc(c(-c3cc(CN4CCN(C)CC4)n(C)c3)cn2)O1 next?
Response given: < 50 nM

---

STUDY TARGET: EGFR^L858R/T790M (Homo sapiens, UniProt P00533, L858R/T790M)
Sequence (P00533 25-1210 T790M/L858R): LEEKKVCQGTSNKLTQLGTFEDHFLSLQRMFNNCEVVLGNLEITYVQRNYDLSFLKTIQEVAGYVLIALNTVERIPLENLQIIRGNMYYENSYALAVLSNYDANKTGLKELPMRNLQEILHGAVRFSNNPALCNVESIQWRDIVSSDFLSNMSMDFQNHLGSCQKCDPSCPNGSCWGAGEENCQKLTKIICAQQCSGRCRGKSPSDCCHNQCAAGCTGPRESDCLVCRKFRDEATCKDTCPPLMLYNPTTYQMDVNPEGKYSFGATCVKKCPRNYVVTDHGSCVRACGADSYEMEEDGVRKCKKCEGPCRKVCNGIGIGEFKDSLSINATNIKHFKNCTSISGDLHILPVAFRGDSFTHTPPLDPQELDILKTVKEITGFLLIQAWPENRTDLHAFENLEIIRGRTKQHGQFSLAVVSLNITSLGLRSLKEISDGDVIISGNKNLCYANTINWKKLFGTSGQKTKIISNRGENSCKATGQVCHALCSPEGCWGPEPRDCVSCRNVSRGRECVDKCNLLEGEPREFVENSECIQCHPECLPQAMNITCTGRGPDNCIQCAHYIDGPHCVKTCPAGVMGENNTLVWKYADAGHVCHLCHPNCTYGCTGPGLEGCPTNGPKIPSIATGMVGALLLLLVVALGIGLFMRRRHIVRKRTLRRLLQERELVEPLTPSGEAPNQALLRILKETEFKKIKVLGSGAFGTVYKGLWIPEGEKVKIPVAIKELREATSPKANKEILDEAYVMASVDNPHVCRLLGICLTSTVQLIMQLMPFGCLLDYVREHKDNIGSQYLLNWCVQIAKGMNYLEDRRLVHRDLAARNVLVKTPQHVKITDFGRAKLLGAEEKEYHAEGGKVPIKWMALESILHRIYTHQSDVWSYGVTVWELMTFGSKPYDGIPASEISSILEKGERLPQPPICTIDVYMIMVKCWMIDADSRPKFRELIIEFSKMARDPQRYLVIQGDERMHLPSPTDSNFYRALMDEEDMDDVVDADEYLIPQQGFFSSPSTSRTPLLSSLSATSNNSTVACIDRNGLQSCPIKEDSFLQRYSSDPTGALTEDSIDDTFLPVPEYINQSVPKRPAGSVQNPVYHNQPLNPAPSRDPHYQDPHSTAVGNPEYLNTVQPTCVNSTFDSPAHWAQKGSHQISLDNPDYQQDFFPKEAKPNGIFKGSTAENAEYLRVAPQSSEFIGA
PROTOCOL DETAILS: HTRF KinEASE-TK in vitro kinase assay, EGFR L858R/T790M (LT)
EXPERIMENTAL SETUP: EGFR L858R/T790M kinase inhibition
pIC50: −log10 of the molar value.
OBSERVABLE: pIC50

Known pIC50 results, listed for orientation:
C[C@H]1CCOc2c(cnn2C)-c2nccc(n2)Nc2cc(c(-c3cnc(N4CCN(C)CC4)c(OCC(F)(F)F)c3)cn2)O1 = > 7.30
C[C@H]1CCOc2c(cnn2C)-c2nccc(n2)Nc2cc(c(-c3cn(CCN4CCCC4)nc3OCC(F)(F)F)cn2)O1 = > 7.30

Now look at this one.
Challenge: // returns reported pIC50 for input COC(=O)c1cc(-c2cnc3cc2O[C@@H](C)CCOc2c(cnn2C)-c2nccc(n2)N3)n(C)c1
Response given: > 7.30

---

STUDY TARGET: EGFR^L858R (Homo sapiens, UniProt P00533, L858R)
Sequence (P00533 25-1210 L858R): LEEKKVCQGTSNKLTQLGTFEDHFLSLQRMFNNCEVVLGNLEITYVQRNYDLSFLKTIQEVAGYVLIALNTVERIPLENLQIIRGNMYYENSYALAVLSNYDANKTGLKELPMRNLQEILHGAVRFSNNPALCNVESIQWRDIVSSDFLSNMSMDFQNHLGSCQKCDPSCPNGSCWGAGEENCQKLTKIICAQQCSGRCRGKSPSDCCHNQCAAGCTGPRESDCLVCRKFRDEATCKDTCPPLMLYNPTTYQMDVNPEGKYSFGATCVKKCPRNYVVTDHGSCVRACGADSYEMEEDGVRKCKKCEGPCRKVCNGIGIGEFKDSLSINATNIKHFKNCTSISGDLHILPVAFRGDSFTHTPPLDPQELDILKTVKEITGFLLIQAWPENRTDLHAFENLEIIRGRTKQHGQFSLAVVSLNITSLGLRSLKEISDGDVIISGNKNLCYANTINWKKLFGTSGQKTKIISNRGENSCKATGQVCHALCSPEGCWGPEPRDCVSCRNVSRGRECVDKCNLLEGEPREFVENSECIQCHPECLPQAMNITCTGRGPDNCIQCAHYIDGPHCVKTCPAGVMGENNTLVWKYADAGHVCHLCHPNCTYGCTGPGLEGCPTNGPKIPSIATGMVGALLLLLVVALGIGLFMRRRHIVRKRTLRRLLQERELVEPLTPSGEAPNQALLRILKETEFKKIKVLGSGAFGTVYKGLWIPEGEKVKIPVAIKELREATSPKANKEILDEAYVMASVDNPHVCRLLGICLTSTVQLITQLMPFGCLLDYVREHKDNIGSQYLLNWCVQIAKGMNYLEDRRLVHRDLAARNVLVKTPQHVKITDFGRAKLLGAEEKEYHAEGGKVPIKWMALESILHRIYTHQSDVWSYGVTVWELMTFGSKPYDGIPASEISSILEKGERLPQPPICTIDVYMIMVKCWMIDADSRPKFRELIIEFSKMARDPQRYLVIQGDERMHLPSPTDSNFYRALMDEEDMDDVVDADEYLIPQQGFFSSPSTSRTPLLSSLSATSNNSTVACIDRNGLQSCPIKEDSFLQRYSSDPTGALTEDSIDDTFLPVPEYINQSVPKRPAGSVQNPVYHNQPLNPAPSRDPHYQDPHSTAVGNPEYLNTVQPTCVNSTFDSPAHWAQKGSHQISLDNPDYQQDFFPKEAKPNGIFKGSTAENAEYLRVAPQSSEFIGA
PROTOCOL DETAILS: HTRF KinEASE-TK in vitro kinase assay, EGFR L858R (L)
EXPERIMENTAL SETUP: EGFR L858R kinase inhibition
pIC50: −log10 of the molar value.
# pIC50 per entry

Known pIC50 results, listed for orientation:
Cc1c(-c2cnc3cc2O[C@@H](C)CCOc2c(cnn2C)-c2nccc(n2)N3)cnn1C1CCN(CCCF)CC1 [(84)] = > 7.30
CCOc1nn(C2CCN(C)CC2F)cc1-c1cnc2cc1O[C@@H](C)CCOc1c(cnn1C)-c1nccc(n1)N2 (stereo partly shown) [(16)] = > 7.30
CCOC(=O)CN1CCC(n2cc(-c3cnc4cc3O[C@@H](C)CCOc3c(cnn3C)-c3nccc(n3)N4)c(OCC)n2)CC1 [(62)] = > 7.30

Challenge: Please tell me: pIC50 of C[C@H]1CCOc2c(cnn2C)-c2nccc(n2)Nc2cc(c(-c3cc4ccccc4n3C)cn2)O1 [(74)] , system EGFR^L858R (Homo sapiens, UniProt P00533, L858R)?
Response given: ≤ 6.00

Challenge: Can you check CCOc1ncc(C)cc1-c1cnc2cc1O[C@@H](C)CCOc1c(cnn1C)-c1nccc(n1)N2 [(35)] next?
Response given: ≤ 6.00

Challenge: Can you check C[C@H]1CCOc2c(cnn2C)-c2nccc(n2)Nc2cc(ccn2)O1 [(153)] next?
Response given: 6.00 to 7.00

Challenge: Can you check CCOc1nn(CC(F)F)cc1-c1cnc2cc1O[C@@H](C)CCOc1c(cnn1C)-c1nccc(n1)N2 [(29)] next?
Response given: > 7.30

Challenge: Can you check C[C@H]1CCOc2c(cnn2C)-c2nccc(n2)Nc2cc(c(-c3cccc(NCCN(C)C)c3)cn2)O1 [(148)] next?
Response given: > 7.30

Challenge: Can you check C[C@H]1CCOc2c(cnn2C)-c2nccc(n2)Nc2cc(c(-c3ccc(N(C)CCN(C)C)nc3)cn2)O1 [(138)] next?
Response given: > 7.30

---

STUDY TARGET: Ba/F3 EGFR-Del19/C797S (Homo sapiens, UniProt P00533, C797S, cells depend on it, form not given)
PROTOCOL DETAILS: Ba/F3 viability assay (CellTiter-Glo), EGFR-Del19/C797S (DC)
Type: cell-based
EXPERIMENTAL SETUP: Ba/F3 EGFR-Del19/C797S anti-proliferation; read-out: BAF3 DC IC50
# GI50 per entry

Known GI50 results, listed for orientation:
C[C@H]1CCOc2c(cnn2C)-c2nccc(n2)Nc2cc(c(-c3ccc(N(C)CCN(C)C)cc3)cn2)O1 = < 0.05 µM
C[C@H]1CCOc2c(cnn2C)-c2nccc(n2)Nc2cc(c(-c3ccc(N4CCN(C)CC4)nc3)cn2)O1 = < 0.05 µM
CC1CCOc2c(cnn2C)-c2nccc(n2)Nc2cc(c(-c3ccc(CN4CCN(C)CC4)cc3)cn2)O1 (stereo not drawn) = < 0.05 µM
C[C@H]1CCOc2c(cnn2C)-c2nccc(n2)Nc2cc(c(-c3ccc4c(ccn4C)c3)cn2)O1 = 0.1 to 1 µM
CCOc1nn(C2CCN(C)CC2F)cc1-c1cnc2cc1O[C@@H](C)CCOc1c(cnn1C)-c1nccc(n1)N2 (stereo partly drawn) = < 0.05 µM

Challenge: // returns reported GI50 for input C[C@H]1CCOc2c(cnn2C)-c2nccc(n2)Nc2cc(c(-c3cc4ccccc4n3C)cn2)O1
Response given: ≥ 1 µM

Challenge: Can you check COc1cc(-c2cnc3cc2O[C@@H](C)CCOc2c(cnn2C)-c2nccc(n2)N3)cnc1N1CCN(C)CC1 next?
Response given: < 0.05 µM

Challenge: Can you check C[C@H]1CCOc2c(cnn2C)-c2nccc(n2)Nc2cc(c(-c3ncc(CN4CCN(C)CC4)s3)cn2)O1 next?
Response given: < 0.05 µM

Challenge: Can you check CCOc1nn(C2CC2CN2CCOCC2)cc1-c1cnc2cc1O[C@@H](C)CCOc1c(cnn1C)-c1nccc(n1)N2 (stereo partly drawn) next?
Response given: < 0.05 µM

Challenge: Can you check C[C@H]1CCOc2c(cnn2C)-c2nccc(n2)Nc2cc(c(-c3cnc(N4CCN(C)CC4)n3C)cn2)O1 next?
Response given: 0.1 to 1 µM

Challenge: Can you check CCOc1nn(C2CC3CCC(C2)O3)cc1-c1cnc2cc1O[C@@H](C)CCOc1c(cnn1C)-c1nccc(n1)N2 (stereo partly drawn) next?
Response given: < 0.05 µM

Challenge: Can you check CCCOc1nn(C2CC2)cc1-c1cnc2cc1O[C@@H](C)CCOc1c(cnn1C)-c1nccc(n1)N2 next?
Response given: < 0.05 µM
